test-target: Tubulin
method-description: Inhibition of tubulin polymerization in presence of microtubule associated proteins after 30 mins
reported-metric: IC50 (nM)

Recorded IC50, per entry:
mol | reported-metric | reported-measurement
COc1cc(C(=O)c2cccc3c2ccn3C)cc(OC)c1OC | IC50 | 1900
COc1cc(C(=O)c2ccc3[nH]ccc3c2)cc(OC)c1OC | IC50 | 2200
CCn1ccc2cc(C(=O)c3cc(OC)c(OC)c(OC)c3)ccc21 | IC50 | 1200
COc1cc(C(=O)c2ccc3c(ccn3CO)c2)cc(OC)c1OC | IC50 | 1800

P: COc1cc(C(=O)c2cccc3[nH]ccc23)cc(OC)c1OC
Q: COc1cc(C(=O)c2ccc3c(ccn3C)c2)cc(OC)c1OC
Between the entries labelled P and Q , which has a larger IC50 value on record? Bench note: the answer is the label of the chosen record. P
(P: 2000 nM, Q: 1100 nM)

----------
Tested on: TSGH
method-description: Growth inhibition of human TSGH cells after 72 hrs by methylene blue dye assay
Assay type: functional, cell-based
Measured IC50, listed per entry.
Give a bare numeral; the unit µM is implied.

Recorded IC50, per entry:
mol | IC50, µM
COc1cc(C(=O)c2cccc3[nH]ccc23)cc(OC)c1OC | 0.0544
COc1cc(C(=O)c2ccc3[nH]ccc3c2)cc(OC)c1OC | 0.103
COc1cc(C(=O)c2cccc3c2ccn3C)cc(OC)c1OC | 0.0269
COc1cc(C(=O)c2cc3ccccc3[nH]2)cc(OC)c1OC | 1.8
COc1cc(C(=O)c2ccc3cc[nH]c3c2)cc(OC)c1OC | 0.43

Fill blank: measured IC50 of the molecule `COc1cc(C(=O)c2cccc3cc[nH]c23)cc(OC)c1OC` is ____. 0.31

----------
test-target: Tubulin (Homo sapiens) (UniProt P68371+Q9H4B7+P0DPH7+P68366+Q13509+Q71U36+P04350+Q3ZCM7+P07437+P68363+Q9BQE3+Q6PEY2+Q13885+Q9BVA1+Q9BUF5)
method-description: Displacement of [3H]colchicine from tubulin at 5 uM
Format: protein-complex assay
reported-metric: Activity (%)

mol | Activity / %
COc1cc(C(=O)c2ccc3c(ccn3C)c2)cc(OC)c1OC | 84
COc1cc(C(=O)c2cccc3c2ccn3C)cc(OC)c1OC | 75
COc1cc(C(=O)c2ccc3c(ccn3CO)c2)cc(OC)c1OC | 78
COc1cc(C(=O)c2ccc3[nH]ccc3c2)cc(OC)c1OC | 71
COc1ccc(/C=C\c2cc(OC)c(OC)c(OC)c2)cc1O | 89
CCn1ccc2cc(C(=O)c3cc(OC)c(OC)c(OC)c3)ccc21 | 81
COc1cc(C(=O)c2cccc3[nH]ccc23)cc(OC)c1OC | 74

----------
System: TSGH
method-description: Growth inhibition of human TSGH cells after 72 hrs by methylene blue dye assay
Assay type: functional, cell-based
Measured IC50, listed per entry.
Give a bare numeral; the unit µM is implied.

mol | test-target | reading-unit | IC50
COc1cc(C(=O)c2ccc3c(ccn3C(C)C)c2)cc(OC)c1OC | TSGH | µM | 1.1
CCCn1ccc2cc(C(=O)c3cc(OC)c(OC)c(OC)c3)ccc21 | TSGH | µM | 1.5
CCn1ccc2cc(C(=O)c3cc(OC)c(OC)c(OC)c3)ccc21 | TSGH | µM | 0.041
COc1cc(C(=O)c2ccc3c(ccn3C)c2)cc(OC)c1OC | TSGH | µM | 0.0134

Fill blank: measured IC50 of the molecule `COc1cc(C(=O)c2ccc3c(ccn3CCN(C)C)c2)cc(OC)c1OC` is ____. 4.9

----------
method-description: Growth inhibition of human KB-vin10 cells after 72 hrs by methylene blue dye assay
Format: functional
condition-context: KB-VIN10, 72 h
reported-metric: IC50 (nM)
Give a bare numeral; the unit nM is implied.

mol | reading-unit | IC50
COc1cc(C(=O)c2c[nH]c3ccccc23)cc(OC)c1OC | nM | 1500
COc1cc(C(=O)c2ccc3cc[nH]c3c2)cc(OC)c1OC | nM | 452
CCCn1ccc2cc(C(=O)c3cc(OC)c(OC)c(OC)c3)ccc21 | nM | 2100
COc1cc(C(=O)c2ccc3c(ccn3CC(=O)O)c2)cc(OC)c1OC | nM | 476
CCn1ccc2cc(C(=O)c3cc(OC)c(OC)c(OC)c3)ccc21 | nM | 40

Fill blank: measured IC50 of the molecule `COc1cc(C(=O)c2cccc3[nH]ccc23)cc(OC)c1OC` is ____. 51.4

Fill blank: measured IC50 of the molecule `COc1cc(C(=O)c2ccc3[nH]ccc3c2)cc(OC)c1OC` is ____. 111

Fill blank: measured IC50 of the molecule `COc1cc(C(=O)c2cccc3c2ccn3C)cc(OC)c1OC` is ____. 26.1

Fill blank: measured IC50 of the molecule `COc1cc(C(=O)c2cccc3cc[nH]c23)cc(OC)c1OC` is ____. 284

Fill blank: measured IC50 of the molecule `COc1cc(C(=O)c2cc3ccccc3[nH]2)cc(OC)c1OC` is ____. 2800

----------
Test system: TSGH
method-description: Growth inhibition of human TSGH cells after 72 hrs by methylene blue dye assay
Format: functional, cell-based
Measured IC50, listed per entry.
Give a bare numeral; the unit nM is implied.

mol | test-target | IC50 (nM)
COc1cc(C(=O)n2ccc3ccccc32)cc(OC)c1OC | TSGH | 8400
COc1cc(C(=O)c2ccc3c(ccn3CC(=O)O)c2)cc(OC)c1OC | TSGH | 548
COc1cc(C(=O)c2c[nH]c3ccccc23)cc(OC)c1OC | TSGH | 1100

Read the next record carefully.
Fill blank: measured IC50 of the compound `COc1cc(C(=O)c2ccc3c(ccn3CO)c2)cc(OC)c1OC` is ____. 43

src = ChEMBL document CHEMBL1148754
